Hello, the source for this data is the nanobody polyreactivity screen of Harvey et al. (2022), in case you need it.

assay.protocol: yeast display, Sf9 membrane polyspecificity reagent, FACS + sequencing; frameworks hold sequencing errors
readout.kind: polyreactivity (PSR sort gate)

Field: example entries. Status: answers known.
seq_string=QDQLVESCGALLQAGGSLRLSCAASGITIDTYFMGRYRQAPGKETELLAAISNSDGSTYYADSVKGRFTISRDNAKHTVYLPMNSLKPEDTAVYYCNAQSYYSWHLRYDYWGQGTQVTVSS result="high polyreactivity"
seq_string=QVQLVESGGGLVQAGGSLRLSCAASGSTFHTNSMGGYRQAPGKETELVAAIRSGGGTNYADSVKGRFTISRDNAKNTVYLQMNSLKPEDTAVYYCNASPLPYSHRGDYWGQGTQVTVSS result="low polyreactivity"
seq_string=QVQLVESGGGLVQAGGSLRLSCAASGITSRQYAMGWYRQAPGKERELVAAISFSGGRTYYADSVKGRFTISRDNAKNTVYLQMNSLKPEDTAVYYCATRNRYSPRDYWGQGTQVTVSS result="high polyreactivity"
seq_string=QVQLVESGGGLVQAGGSLRLSCAASGSTFQTYAMGGYRQAPGKEREFVAAITSGGSTNYADSVKGRFTISRDNAKNTVYLQMNSLKPEDTAVYYCAVRQIYQTSDHRLQYDYWGQGTQVTVSS result="low polyreactivity"

--- query ---
Query :: State the recorded polyreactivity (PSR sort gate) for this entry: QDQLVESRGGLVQAGGSLRLSCAASGINIGTNAMGWYRQAPGKERELVAAISGGGSTDYADSVKGRFTISRDNAKNPVYLQMNSLKPEDPAFYYCAANTGPVPLKGDYWGQGTQVTVSS
Result :: low polyreactivity

* * *

assay.protocol: yeast display, Sf9 membrane polyspecificity reagent, FACS + sequencing; frameworks hold sequencing errors
readout.kind: polyreactivity (PSR sort gate)

Field: example entries. Status: answers known.
seq_string=QVQLVESGGVLVQAGGSLRLTCAASGRIFQNYAMGWYRQAPAKERELDATISSGVSTYYADSVKGRFTISRDNAKNTVYLQMNSLKPEDTAVYYCAAYVPWFEMDYWGQGTQVTVSS readout_kind="polyreactivity (PSR sort gate)" result="low polyreactivity"
seq_string=QVQLVESGGGLVQAGGSLRLSCAASGSIFKPYAMGWYRQAPGKERELVAAISTRGSSTYYADSVKGRFTISRDNAKNTVYLQMNSLIPEDTAVYYCAKRRYLWGYEYDSWGQGTQVTVSS readout_kind="polyreactivity (PSR sort gate)" result="high polyreactivity"
seq_string=QVQLVESGGGLVQAGGSLRLSCAASGSTFHYYAMGWYRQAPGKERELVATITWRGGFTYYADSVKGRFTISRDNAKNTVYLQMNSLKPEDTAGYYCTDYSVRRYRDPRLYYWGQGTQVTVSS readout_kind="polyreactivity (PSR sort gate)" result="high polyreactivity"
seq_string=QVQLVESGGGLVQAGGSLRLSCAASGRIVKYAMGWYRQAPGKERELVAAISGSGGTTYYADSVKGRFTISRDNAKNTVYLQMNSLKPEETAVYYCAASRPRPPSSRRMDYWGQGTQVTVSS readout_kind="polyreactivity (PSR sort gate)" result="high polyreactivity"

Query :: State the recorded polyreactivity (PSR sort gate) for this entry: QVQLVESGGGLVQAGGSLRLSCAASGSIFTFYALGWYRQAPGQERELVAAISYSGGSTYYADSVTGRFTISRDNAKITVYLQMNSLKPEDTAVFYCARDYFVDGPGYDYWGQGTQVTVSS
Result :: low polyreactivity

Query :: State the recorded polyreactivity (PSR sort gate) for this entry: QVQLEESGGGLVQAGGSLRLSCAASGFTFRYYAMGWYRQAPGKERELVASISSSGGSTNYADSVKGRFTISRDNAKNTVYLQMNSLKPEDTAVYYCAVPPYTWLYDYWGQGTQVTVSS
Result :: high polyreactivity

Query :: State the recorded polyreactivity (PSR sort gate) for this entry: QVQLVESGGGLVQAGGSLRLSCAASGSTFALYAMGWYRQAPGKERELVAAISRSGSSTYYADSVKGRFTMSRDNAKNTVYLQMNSLKPEDTAVYYCATTISGLTSRLYYWGQGTQVTVSS
Result :: high polyreactivity

Query :: State the recorded polyreactivity (PSR sort gate) for this entry: QVQLVESGGGLVQAGGSLRLSCAASGSIFGTYAMGWYRQAPGKERELVARISGGGSTYYADSVKGRFTISRDNAKNTVYLQMNSLKPEDTAVYYCNVRKWAYCSHAIIYNYWGQGTQVTVSS
Result :: high polyreactivity

Query :: State the recorded polyreactivity (PSR sort gate) for this entry: QVQLVESGGGVVQAGGSLRLSCAASGFIFGYYATGWYRQAPGKERELVDAFTRSGGSTRYADSVKGRFTISRDNAKNTVYLHMNSLKPEDSAVYYCNAYAPRQLYGYDYWGQGTQVTVSS
Result :: high polyreactivity

Query :: State the recorded polyreactivity (PSR sort gate) for this entry: QVQLVESGGGLVQAGGSLRLSCAASGSILYFYAMGWYRQAPGKEREFVAAISRSGGSTRYADSVKGRFTISRDNAKNTVYLQMNSLKPEDTAVYYCAATSRSYNDYDYWGQGTQVTVSS
Result :: high polyreactivity

Query :: State the recorded polyreactivity (PSR sort gate) for this entry: QVQLVESGGGLVQAGGSLRLSCAASGFIFWHYTMGWYRQAPGKERELVAASTWTGGSTYYADSVKGRFTISRDNEKNTVYLQMNSLKPEETAVYYCNADYPGEGITYGYWGQGTQVTLSS
Result :: low polyreactivity
